Collected set of IC50 measured with Caspase-1 (Homo sapiens, UniProt P29466) across studies.
Target Desc: Caspase-1 (Homo sapiens, UniProt P29466)
Sequence (P29466 whole entry): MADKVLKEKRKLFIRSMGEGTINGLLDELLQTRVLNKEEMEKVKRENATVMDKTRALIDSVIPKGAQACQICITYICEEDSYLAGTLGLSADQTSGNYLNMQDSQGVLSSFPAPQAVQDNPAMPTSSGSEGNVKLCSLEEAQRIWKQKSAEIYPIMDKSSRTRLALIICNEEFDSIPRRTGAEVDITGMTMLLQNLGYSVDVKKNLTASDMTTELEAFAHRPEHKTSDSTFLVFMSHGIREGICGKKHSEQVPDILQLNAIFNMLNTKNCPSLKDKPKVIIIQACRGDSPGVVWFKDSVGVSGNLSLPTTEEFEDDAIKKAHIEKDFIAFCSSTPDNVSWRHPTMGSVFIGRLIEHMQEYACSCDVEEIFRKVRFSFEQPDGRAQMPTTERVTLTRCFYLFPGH
Record the value in nM, omitting the unit from your answer.

Consider the worked cases shown below.
Value sought: IC50, system Caspase-1 (Homo sapiens, UniProt P29466), item CC(C)CC(c1nnnn1CCCC(=O)N1CCc2ccccc2C1)N(Cc1ccccc1)CC(O)CC(=O)[O-].[Na+] (centres undefined) . Result: 12100

The recorded IC50 with Caspase-1 (Homo sapiens, UniProt P29466) for O=C1C[C@H](NC(=O)[C@@H]2CN(C(=O)c3ccccc3)C[C@@H]3CCCC[C@H](NC(=O)c4ccccc4)C(=O)N32)C(O)O1 (some centres undefined) was 7

More entries:
Observed IC50 on Caspase-1 (Homo sapiens, UniProt P29466), entry O=C[C@H](CC(=O)O)NC(=O)CCCCCNC(=O)c1ccc(Nc2cnc3ccccc3n2)cc1 , equals 190

Test item NC(=O)c1cc(-c2ccc(Cl)cc2)nnc1Cl ; Caspase-1 (Homo sapiens, UniProt P29466); reported IC50 was 5000

# value of IC50, Caspase-1 (Homo sapiens, UniProt P29466), item CC(C)[C@H](CC(=O)N1CCCC(Oc2ccccc2)C1)C(=O)N[C@H](C=O)CC(=O)O (some centres undefined) = 170

Lab entry: Caspase-1 (Homo sapiens, UniProt P29466) assay, molecule CN1C[C@@H]2CCCC[C@H](NC(=O)c3ccccc3)C(=O)N2[C@H](C(=O)N[C@H]2CC(=O)OC2O)C1 (some centres undefined) , IC50 = 5
